Target: human DPP1 enzyme (Homo sapiens, UniProt P53634)
Sequence (P53634 25-134 limits assumed): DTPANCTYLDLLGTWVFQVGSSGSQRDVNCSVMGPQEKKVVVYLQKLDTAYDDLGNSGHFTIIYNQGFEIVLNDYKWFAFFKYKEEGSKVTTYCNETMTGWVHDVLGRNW
Sequence (P53634 231-394 limits assumed): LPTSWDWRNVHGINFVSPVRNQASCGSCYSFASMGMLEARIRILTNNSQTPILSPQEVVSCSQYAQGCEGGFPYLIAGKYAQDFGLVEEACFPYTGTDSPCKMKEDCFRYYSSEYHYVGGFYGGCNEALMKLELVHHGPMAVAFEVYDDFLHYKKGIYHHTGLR
Sequence (P53634 395-463 limits assumed): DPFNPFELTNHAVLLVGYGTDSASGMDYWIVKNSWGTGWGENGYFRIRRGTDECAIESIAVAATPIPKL
Test: Human DPP1 Enzyme IC50 Assay
Assay type: biochemical
Set-up: was first proteolytically processed into its mature form using recombinant human cathepsin L; purchased R&D Systems
Conditions: activated recombinant human DPP1, 400 μM H-Gly-Arg-AMC, 10 minutes pre-incubation at 37° C., pH 6.0; average of n runs; read-out: Avg. IC50 (Human DPP1 enzyme IC50 value ranges)
Procedure: Example 97. Human DPP1 Enzyme IC50 Assay Recombinant human DPP1 enzyme (R&D Systems; Minneapolis, MN) was first proteolytically processed into its mature form using recombinant human cathepsin L (R&D Systems) in a buffer consisting of 20 mM citric acid pH 4.5, 150 mM NaCl, 1 mM EDTA and 10 mM DTT. […] Substrate cleavage was measured for 90 minutes at 37° C., with fluorescence at Excitation/Emission 350/450 nm measured every 5 minutes. […]
property: IC50

compound: CN1C(=O)CCc2cc(-c3ccc(C[C@@H](C#N)NC(=O)[C@@H]4CNCCCO4)cc3)ccc21
IC50: > 15 nM
//
compound: N#Cc1ccc(-c2ccc(C[C@@H](C#N)NC(=O)[C@@H]3CNCCCO3)cc2)cc1C1CC1
IC50: > 15 nM

According to the records, this compound `N#C[C@H](Cc1ccc(-c2ccc3c(c2)C2(CN(C4COC4)C2)OC3=O)cc1)NC(=O)[C@@H]1CNCCCO1` displays IC50 of > 15 nM

The compound listed as `CO[C@@H]1CCNC[C@@H](C(=O)N[C@H](C#N)Cc2ncc(-c3ccc4c(F)nn(C)c4c3)s2)OC1` has a reported IC50 of > 15 nM

Form field IC50, entry `N#C[C@H](Cc1cc2c(cc1F)-c1cc3c(cc1CO2)COC31CCN(C2COC2)CC1)NC(=O)[C@@H]1CNCCCCO1` : < 5 nM

Form field IC50, entry CO[C@@H]1CCNC[C@@H](C(=O)NC(C#N)Cc2cc3cc(-c4cc5c(C)nc(C)cn5c4)ccc3s2)OC1 (single isomer, unassigned) : > 15 nM
